# maps each entry to its Short-time stability (24h, RT, with daylight) Accuracy [%]
measurement notes: Short-term stability in spiked pooled human plasma (bench-top, 4 °C, 56 °C)
particulars: validation standard 2xLLOV
Report the figure in % without appending any unit label.

Give its Short-time stability (24h, RT, with daylight) Accuracy [%] value. Item: CC(=O)Nc1cccc(-n2c(=O)n(C3CC3)c(=O)c3c(Nc4ccc(I)cc4F)n(C)c(=O)c(C)c32)c1
88.2

Give its Short-time stability (24h, RT, with daylight) Accuracy [%] value. Item: CNC(=O)c1cc(Oc2ccc(NC(=O)Nc3ccc(Cl)c(C(F)(F)F)c3)c(F)c2)ccn1
89.4

Give its Short-time stability (24h, RT, with daylight) Accuracy [%] value. Item: Nc1cccc2c1C(=O)N(C1CCC(=O)NC1=O)C2=O (stereo not shown) [Pomalidomide]
51.2

Give its Short-time stability (24h, RT, with daylight) Accuracy [%] value. Item: O=C1CN2Cc3c(ccc(Cl)c3Cl)N=C2N1 [Anagrelide]
84.8

Give its Short-time stability (24h, RT, with daylight) Accuracy [%] value. Item: COC(=O)c1ccc2c(c1)NC(=O)/C2=C(\Nc1ccc(N(C)C(=O)CN2CCN(C)CC2)cc1)c1ccccc1
102.5

Give its Short-time stability (24h, RT, with daylight) Accuracy [%] value. Item: Cc1[nH]c2ccccc2c1CCNCc1ccc(/C=C/C(=O)NO)cc1
53.1

Give its Short-time stability (24h, RT, with daylight) Accuracy [%] value. Item: CS(=O)(=O)CCNCc1ccc(-c2ccc3ncnc(Nc4ccc(OCc5cccc(F)c5)c(Cl)c4)c3c2)o1
46.9

----------
measurement notes: Long-term stability in spiked pooled human plasma
particulars: validation standard LLOV
# maps each entry to its Long-term stability, 1 month, -20°C Accuracy [%]
Report the figure in % without appending any unit label.

- molecule: "CNC(=O)c1cc(Oc2ccc(NC(=O)Nc3ccc(Cl)c(C(F)(F)F)c3)c(F)c2)ccn1 [Regorafenib]"
  numeric result: 105.4
- molecule: "CCc1cc2c(cc1N1CCC(N3CCOCC3)CC1)C(C)(C)c1[nH]c3cc(C#N)ccc3c1C2=O [Alectinib]"
  numeric result: 84.7
- molecule: "CS(=O)(=O)CCNCc1ccc(-c2ccc3ncnc(Nc4ccc(OCc5cccc(F)c5)c(Cl)c4)c3c2)o1 [Lapatinib]"
  numeric result: 85.5
- molecule: "Cn1cnc2c(F)c(Nc3ccc(Br)cc3F)c(C(=O)NOCCO)cc21 [Binimetinib]"
  numeric result: 103.4
- molecule: "C=CC(=O)Nc1cc(Nc2nccc(-c3cn(C)c4ccccc34)n2)c(OC)cc1N(C)CCN(C)C [Osimertinib]"
  numeric result: 83.0
- molecule: "Cc1ccc(Nc2nccc(N(C)c3ccc4c(C)n(C)nc4c3)n2)cc1S(N)(=O)=O [Pazopanib]"
  numeric result: 102.3
- molecule: "COc1cc2nccc(Oc3ccc(NC(=O)C4(C(=O)Nc5ccc(F)cc5)CC4)cc3)c2cc1OC [Cabozantinib]"
  numeric result: 91.9

// switching to the query molecule
Give its Long-term stability, 1 month, -20°C Accuracy [%] value. Item: COC(=O)N[C@@H](C)CNc1nccc(-c2cn(C(C)C)nc2-c2cc(Cl)cc(NS(C)(=O)=O)c2F)n1 [Encorafenib]
84.2

----------
measurement notes: Short-term stability in spiked pooled human plasma (bench-top, 4 °C, 56 °C)
particulars: validation standard LLOV
Short-time stability (24h, 4°C, without daylight) Accuracy [%] under 90% gets Yes, anything at or over 90% gets No.

Solved cases below.
- molecule: "CNCc1ccc(-c2[nH]c3cc(F)cc4c3c2CCNC4=O)cc1"
  label value: "No"
- molecule: "CNC(=O)c1ccc(N2C(=S)N(c3cnc(C#N)c(C(F)(F)F)c3)C(=O)C23CCC3)cc1F [Apalutamide]"
  label value: "No"

Check if Short-time stability (24h, 4°C, without daylight) Accuracy [%] falls below 90% for CCOc1cc2ncc(C#N)c(Nc3ccc(OCc4ccccn4)c(Cl)c3)c2cc1NC(=O)/C=C/CN(C)C .
Yes

Check if Short-time stability (24h, 4°C, without daylight) Accuracy [%] falls below 90% for Cc1cc(Nc2ncc(Cl)c(Nc3ccccc3S(=O)(=O)C(C)C)n2)c(OC(C)C)cc1C1CCNCC1 .
No

Check if Short-time stability (24h, 4°C, without daylight) Accuracy [%] falls below 90% for Cc1ccc(NC(=O)c2ccc(CN3CCN(C)CC3)cc2)cc1Nc1nccc(-c2cccnc2)n1 .
Yes
